Kindly supply the reported GI50 values for the records listed here.
- System: MDA-MB-231 (mammary gland adenocarcinoma)
- assay.name: In vitro cytotoxic activity (GI50), method (b), propidium iodide
- Type: cell-based
- measurement.parameters: Homo sapiens, 96 hrs
I only need the number, in µM, no unit after it.

*Q* State the recorded GI50 for this entry: CC(C)CCCC(C)CCCC(C)CCN1C(=O)c2cccc(O)c2N(C)c2c(O)cc(O)cc21 (stereo not drawn) [Compound 78]
*A* 0.24

*Q* Give the measured GI50 of CC(C)=CCC/C(C)=C/CC/C(C)=C/CN1C(=O)c2cccc(O)c2Nc2c1cc(O)c(Br)c2O [Compound 97] .
*A* 2.02

*Q* Which GI50 is reported for this compound? COC(C)(CCC=C(C)C)CCC/C(C)=C/CN1C(=O)c2cccc(O)c2N(C)c2c(O)cc(O)cc21 (stereo not drawn) [Compound 80]
*A* 1.02

*Q* Requested read-out: GI50. Entry: [2H]C([2H])([2H])N1c2c(O)cccc2C(=O)N(C/C=C(\C)CC/C=C(\C)CCC=C(C)C)c2cc(O)cc(O)c21 [Compound 98]
*A* 0.51

*Q* What does the data say about its GI50? Entry: COC(C)(C)CCC/C(C)=C/CC/C(C)=C/CN1C(=O)c2cccc(O)c2Nc2c(O)cc(O)cc21 [Compound 82]
*A* 11

*Q* What does the record list as GI50 for CC(C)=CCCC(C)(O)CCC/C(C)=C/CN1C(=O)c2cccc(O)c2Nc2c(O)cc(O)cc21 (stereo not drawn) [Compound 89] ?
*A* 25.3

*Q* Which GI50 reading was recorded for the compound COC(C)(C)CCCC(C)(CCC/C(C)=C/CN1C(=O)c2cccc(O)c2Nc2c(O)cc(O)cc21)OC (stereo not drawn) [Compound 84] ?
*A* 23.5

*Q* Consider the compound shown here: CCN1c2c(O)cccc2C(=O)N(C/C=C(\C)CC/C=C(\C)CCC=C(C)C)c2cc(O)cc(O)c21 [Compound 14] What is its recorded GI50?
*A* 2.16

*Q* # lookup: GI50 of CCN1c2c(O)cccc2C(=O)N(CC=C(C)CCCC(C)(CCCC(C)(C)OC)OC)c2cc(O)cc(O)c21 (stereo not drawn) [Compound 87]
*A* 2.4

* * *

- Test system: 36 cancer cell lines
- assay.name: Anticancer activity profiling against 36 cell lines (IC50)
- Assay type: cell-based
- measurement.parameters: Homo sapiens, OVCAR-3, Ovarian, cell line OVCAR3 (NCI), adeno ca, md; read-out: IC50
- Experimental: Compounds were dissolved at 10 mM in DMSO. Dilution in vehicle to concentrations of 30, 10, 3, 1 and 0.3 μM were prepared immediately before assays. […] The following day, propidium iodide was added to one of the two plates and fluorescence measured (Tz). […] The equivalent cell number was determined after adding propidium iodide by measuring the signal by fluorescence (C for control).
measured.parameter: pIC50
Reminder that pIC50 is minus the log10 of a molar concentration.

*Q* Item CC(C)=CCC/C(C)=C/CC/C(C)=C/CN1C(=O)c2cccc(O)c2N(C)c2c(O)cc(O)cc21 has what recorded pIC50?
*A* 6.86

* * *

- Test system: 36 cancer cell lines
- assay.name: Anticancer activity profiling against 36 cell lines (IC50)
- Assay type: cell-based
- measurement.parameters: CNS, cell line SF268 (NCI); read-out: IC50
measured.parameter: pIC50
pIC50 is a log-scale quantity: -log10 of the concentration expressed in molar.

*Q* Please look up its pIC50: CC(C)=CCC/C(C)=C/CC/C(C)=C/CN1C(=O)c2cccc(O)c2N(C)c2c(O)cc(O)cc21
*A* 8.00

Values compiled from patent US20060079512A1.
